Tested on: 233499-124-R-J3-PDC spheroids with HUVEC/MSC, viability
Assay: Anticancer human tumor 233499-124-R-J3-PDC patient-derived colon adenocarcinoma cell line growth inhibition [PI3K]
Details: second compound 3.16 µM; first compound 1 µM; stronger effect = lower value
Text: Combinatorial screen of targeted agents with the PI3K inhibitors inavolisib, alpelisib, duvelisib, and copanlisib in multi-cell type tumor spheroids A high-throughput screen of multi-cell type tumor spheroids was designed to identify active combinations of targeted small molecules and PI3K pathway inhibitors. […] Compounds. […] If the clinical Cmax for an agent had not been determined, the highest concentration tested was 10 microM. […]
MEASURED PROPERTY: viability, T/C (%)
Number in %, nothing else.

Prompt: GET /values?readout=viability, T/C&item= C#Cc1c(F)ccc2cc(O)cc(-c3ncc4c(N5CC6CCC(C5)N6)nc(OCC56CCCN5CC(F)C6)nc4c3F)c12 (stereo not given) + Cc1nc(NC(=O)N2CCCC2C(N)=O)sc1-c1ccnc(C(C)(C)C(F)(F)F)c1
Response: 43.6

Prompt: So what does the record say about viability, T/C for CC(C)NCC(C(=O)N1CCN(c2ncnc3c2C(C)CC3O)CC1)c1ccc(Cl)cc1 (stereo not given) + CC(Nc1ncnc2nc[nH]c12)c1cc2cccc(Cl)c2c(=O)n1-c1ccccc1 ?
Response: 85.7

Prompt: // lookup viability, T/C for CNC(=O)c1ccc(N2C(=S)N(c3ccc(C#N)c(C(F)(F)F)c3)C(=O)C2(C)C)cc1F + Cc1nc(NC(=O)N2CCCC2C(N)=O)sc1-c1ccnc(C(C)(C)C(F)(F)F)c1
Response: 54.5

Prompt: Looking for the measured viability, T/C of CCCS(=O)(=O)Nc1ccc(F)c(C(=O)c2c[nH]c3ncc(-c4ccc(Cl)cc4)cc23)c1F + Cc1nc(NC(=O)N2CCCC2C(N)=O)sc1-c1ccnc(C(C)(C)C(F)(F)F)c1 , can you help?
Response: 53.9

Prompt: Which measured viability, T/C value corresponds to Cn1ncc(Cl)c1-c1cc(C(=O)NC(CN)Cc2cccc(F)c2)sc1Cl (stereo not given) + Cc1nc(NC(=O)N2CCCC2C(N)=O)sc1-c1ccnc(C(C)(C)C(F)(F)F)c1 ?
Response: 38.1

====

Test system: 233499-124-R-J3-PDC spheroids with HUVEC/MSC, viability
Test: Anticancer human tumor 233499-124-R-J3-PDC cell line growth inhibition [PI3K];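 also: spheroids exposed to agents for seven days before readout; percent viability relative to DMSO vehicle control taken as 100%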
Conditions: second compound 10 µM; first compound 10 µM; stronger effect = lower value
MEASURED PROPERTY: viability, T/C

Prompt: // lookup viability, T/C | system=233499-124-R-J3-PDC spheroids with HUVEC/MSC, viability | key= C[C@@H](NC(=O)c1ncnc(N)c1Cl)c1ncc(C(=O)Nc2cc(C(F)(F)F)c(Cl)cn2)s1 + CC(Nc1ncnc2nc[nH]c12)c1cc2cccc(Cl)c2c(=O)n1-c1ccccc1
Response: 97%

Prompt: Entry CC1(C)CCC(CN2CCN(c3ccc(C(=O)NS(=O)(=O)c4ccc(NCC5CCOCC5)c([N+](=O)[O-])c4)c(Oc4cnc5[nH]ccc5c4)c3)CC2)=C(c2ccc(Cl)cc2)C1 + Cc1nc(NC(=O)N2CCCC2C(N)=O)sc1-c1ccnc(C(C)(C)C(F)(F)F)c1 , system 233499-124-R-J3-PDC spheroids with HUVEC/MSC, viability: what viability, T/C was measured?
Response: 2.29%

Prompt: 233499-124-R-J3-PDC spheroids with HUVEC/MSC, viability / viability, T/C / Cn1ncc(Cl)c1-c1cc(C(=O)NC(CN)Cc2cccc(F)c2)sc1Cl (stereo not given) + CC(Nc1ncnc2nc[nH]c12)c1cc2cccc(Cl)c2c(=O)n1-c1ccccc1 : value?
Response: 32.4%

Prompt: Which viability, T/C is reported with 233499-124-R-J3-PDC spheroids with HUVEC/MSC, viability for this entry: C#Cc1c(F)ccc2cc(O)cc(-c3ncc4c(N5CC6CCC(C5)N6)nc(OCC56CCCN5CC(F)C6)nc4c3F)c12 (stereo not given) + Cc1nc(NC(=O)N2CCCC2C(N)=O)sc1-c1ccnc(C(C)(C)C(F)(F)F)c1 ?
Response: 4.04%

Prompt: What value of viability, T/C on 233499-124-R-J3-PDC spheroids with HUVEC/MSC, viability does C=CC(=O)N1CCN(c2nc(=O)n(-c3c(C)ccnc3C(C)C)c3nc(-c4c(O)cccc4F)c(F)cc23)C(C)C1 (stereo not given) + CC(Nc1ncnc2nc[nH]c12)c1cc2cccc(Cl)c2c(=O)n1-c1ccccc1 have?
Response: 88.3%
